Target: T1, Clostridium difficile toxin A (TcdA) (Clostridium difficile strain 10463, UniProt P16154 1-2710)
T1 construct: range 1-2710
T1 sequence (P16154 whole entry): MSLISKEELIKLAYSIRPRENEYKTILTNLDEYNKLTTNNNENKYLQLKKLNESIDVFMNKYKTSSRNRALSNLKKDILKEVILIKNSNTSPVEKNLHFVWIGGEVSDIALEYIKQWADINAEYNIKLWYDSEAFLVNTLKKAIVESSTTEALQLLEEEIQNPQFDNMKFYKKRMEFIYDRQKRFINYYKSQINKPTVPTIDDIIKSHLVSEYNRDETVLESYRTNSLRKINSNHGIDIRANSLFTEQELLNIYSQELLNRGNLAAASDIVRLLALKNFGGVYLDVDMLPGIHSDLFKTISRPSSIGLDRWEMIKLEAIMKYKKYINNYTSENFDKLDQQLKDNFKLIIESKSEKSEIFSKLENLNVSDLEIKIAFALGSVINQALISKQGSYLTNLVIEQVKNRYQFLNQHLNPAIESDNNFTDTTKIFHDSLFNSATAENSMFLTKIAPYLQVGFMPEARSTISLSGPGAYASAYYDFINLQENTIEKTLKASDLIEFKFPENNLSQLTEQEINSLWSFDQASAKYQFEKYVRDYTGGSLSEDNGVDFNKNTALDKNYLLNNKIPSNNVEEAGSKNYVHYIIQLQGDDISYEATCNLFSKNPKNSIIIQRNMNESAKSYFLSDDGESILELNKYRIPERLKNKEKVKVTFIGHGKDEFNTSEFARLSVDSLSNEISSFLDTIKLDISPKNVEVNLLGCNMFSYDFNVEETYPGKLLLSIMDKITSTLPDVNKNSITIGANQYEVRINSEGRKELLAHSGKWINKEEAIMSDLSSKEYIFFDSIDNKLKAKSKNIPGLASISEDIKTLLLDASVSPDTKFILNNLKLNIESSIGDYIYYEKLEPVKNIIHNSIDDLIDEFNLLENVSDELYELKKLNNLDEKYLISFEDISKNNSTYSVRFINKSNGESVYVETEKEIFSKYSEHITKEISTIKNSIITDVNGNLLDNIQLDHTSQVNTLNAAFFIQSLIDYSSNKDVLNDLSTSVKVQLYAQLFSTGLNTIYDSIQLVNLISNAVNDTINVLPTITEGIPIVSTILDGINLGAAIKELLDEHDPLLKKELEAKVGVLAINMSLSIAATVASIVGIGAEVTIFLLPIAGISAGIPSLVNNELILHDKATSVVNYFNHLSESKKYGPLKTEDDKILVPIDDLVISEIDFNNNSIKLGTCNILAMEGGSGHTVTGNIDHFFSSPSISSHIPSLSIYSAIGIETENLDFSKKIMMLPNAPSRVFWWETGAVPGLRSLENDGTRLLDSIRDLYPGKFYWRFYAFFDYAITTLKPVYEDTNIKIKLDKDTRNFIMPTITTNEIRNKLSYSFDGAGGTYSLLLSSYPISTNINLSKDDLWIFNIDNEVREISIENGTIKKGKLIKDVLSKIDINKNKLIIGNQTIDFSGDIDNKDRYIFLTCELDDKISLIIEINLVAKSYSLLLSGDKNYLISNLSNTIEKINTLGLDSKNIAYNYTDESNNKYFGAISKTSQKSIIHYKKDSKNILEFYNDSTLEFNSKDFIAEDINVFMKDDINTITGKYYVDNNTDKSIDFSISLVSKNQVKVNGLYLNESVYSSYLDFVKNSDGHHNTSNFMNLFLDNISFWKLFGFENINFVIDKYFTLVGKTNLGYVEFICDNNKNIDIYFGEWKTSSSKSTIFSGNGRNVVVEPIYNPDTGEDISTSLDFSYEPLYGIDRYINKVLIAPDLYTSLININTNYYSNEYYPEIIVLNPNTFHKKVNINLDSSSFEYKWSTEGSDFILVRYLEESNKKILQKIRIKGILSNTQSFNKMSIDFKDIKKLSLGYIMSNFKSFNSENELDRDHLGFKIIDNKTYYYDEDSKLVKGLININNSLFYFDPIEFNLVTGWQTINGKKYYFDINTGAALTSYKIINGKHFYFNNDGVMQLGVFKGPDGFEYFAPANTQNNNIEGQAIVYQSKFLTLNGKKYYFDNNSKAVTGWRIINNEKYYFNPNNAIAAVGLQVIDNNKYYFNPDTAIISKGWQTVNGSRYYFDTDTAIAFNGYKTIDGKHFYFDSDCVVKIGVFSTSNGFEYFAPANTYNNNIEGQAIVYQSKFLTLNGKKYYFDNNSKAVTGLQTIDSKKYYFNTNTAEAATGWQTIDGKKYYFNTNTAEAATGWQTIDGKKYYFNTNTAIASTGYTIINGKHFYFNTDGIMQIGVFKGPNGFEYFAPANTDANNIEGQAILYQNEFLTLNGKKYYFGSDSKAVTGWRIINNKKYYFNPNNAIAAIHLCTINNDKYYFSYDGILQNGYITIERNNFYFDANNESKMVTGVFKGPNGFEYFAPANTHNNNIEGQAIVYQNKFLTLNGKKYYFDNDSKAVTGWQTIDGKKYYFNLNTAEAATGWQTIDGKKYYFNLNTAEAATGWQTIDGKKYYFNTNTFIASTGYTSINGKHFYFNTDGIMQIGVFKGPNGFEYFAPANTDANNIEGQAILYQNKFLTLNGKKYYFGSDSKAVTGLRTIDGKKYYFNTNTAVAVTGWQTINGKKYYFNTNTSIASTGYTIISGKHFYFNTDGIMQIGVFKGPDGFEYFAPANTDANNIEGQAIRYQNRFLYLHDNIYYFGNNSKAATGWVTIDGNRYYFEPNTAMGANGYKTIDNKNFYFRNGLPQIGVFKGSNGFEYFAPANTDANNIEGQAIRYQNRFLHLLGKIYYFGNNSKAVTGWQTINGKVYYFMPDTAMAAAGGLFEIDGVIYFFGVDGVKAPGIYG
Assay: SPR (BIACORE 3000); TcdA immobilized on CM5 chip, monomeric VHH injected
pKd: −log10 of the molar value.
Threshold check on pKd: at or above 7 gives satisfied, strictly below gives not satisfied.

{"columns": ["binder", "class-label"],
 "data": [
  ["A20.1 (VHH, also called anti-TcdA VHH A20.1) VHH: QVQLVESGGGLAQAGGSLRLSCAASGRTFSMDPMAWFRQPPGKEREFVAAGSSTGRTTYYADSVKGRFTISRDNAKNTVYLQMNSLKPEDTAVYYCAAAPYGANWYRDEYAYWGQGTQVTVSS", "satisfied"],
  ["A5.1 (VHH, also called anti-TcdA VHH A5.1) VHH: QVKLEESGGGLVQAGGSLRLSCAASGRTFSMYRMGWFRQAPGKEREFVGVITRNGSSTYYADSVKGRFTISRDNAKNTVYLQMNSLKPEDTALYYCAATSGSSYLDAAHVYDYWGQGTQVTVSS", "satisfied"],
  ["A24.1 (VHH, also called anti-TcdA VHH A24.1) VHH: QVQLVESGGGLVQAGGSLRLSCAASIRSFSNRNMGWFRQPPGKEREFVAGISWGGGSTRYADSVKGRFTISRDNAKKTVYLQMNSLKPEDTAVYYCAAEFGHNIATSSDEYDYWGQGTQVTVSS", "not satisfied"],
  ["A19.2 (VHH, also called anti-TcdA VHH A19.2) VHH: QVKLEESGGGLVQPGGSLRLSCAASGRTLSSYIVAWFRQAPGKEREFVAGISRRGGNSAYVESVKGRFTISRDNAKNTVYLQMNSLKPEDTAVYYCAADGSVAGWGRRSVSVSSYDYWGQGTQVTVSS", "not satisfied"]
]}

Evaluate A4.2 (VHH, also called anti-TcdA VHH A4.2) VHH: QVKLEESGGGLVQAGGSLRLSCAASGRTFNTLSMGWFRQAPGKEREFVAAVSRSGGSTYYADSVKGRFTISRDNAKNTVYLQMNSLKPEDTAVYYCAAAATKSNTTAYRLSFDYWGQGTQVTVSS : pKd at minimum 7?
satisfied
